test.protocol: chemical genetic growth profiling, strain panel (AID 1159580);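 further: tested at 20 µM; growth read once vehicle control cultures reached saturation at 30 °C; 1 = growth at the plate median or of vehicle wells; lower values mean less growth of the strain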
setup.conditions: S. cerevisiae deletion strains, growth OD, locus YCL016C, strain dcc1, active compounds read low
Among all 5,500 compounds or so, about 2,000 (36%) were called active. Roughly 18% stayed inconclusive and do not appear here. This is one part of the list.
value.kind: normalized growth
// no unit string in output, number only

Completed entries (count: 8):
compound="CC(=O)[C@H]1CCC2C3CC=C4C[C@@H](O)CC[C@]4(C)C3CC[C@@]21C (stereo not given in full)" test_value=0.95
compound="CCC(CCC(C)[C@H]1CCC2C3CC=C4C[C@@H](O)CC[C@]4(C)C3CC[C@@]21C)C(C)C (stereo not given in full)" test_value=1.02
compound=CN(C)CCC=C1c2ccccc2C=Cc2ccccc21 test_value=0.954
compound="CC(=O)OCC(=O)[C@@]1(O)CCC2C3CC[C@@H]4C[C@H](O)CC[C@]4(C)C3C(=O)C[C@@]21C (stereo not given in full)" test_value=1.04
compound="COC(=O)C1=C(C)NC(C)=C(C(=O)OCCN(C)Cc2ccccc2)C1c1cccc([N+](=O)[O-])c1 (stereo not given)" test_value=0.982
compound=CNCCC=C1c2ccccc2CCc2ccccc21 test_value=0.946
compound=COC(=O)C1=C(C)NC(C)=C(C(=O)OC)C1c1ccccc1[N+](=O)[O-] test_value=0.943
compound="CC(=O)OCC(=O)[C@H]1CCC2C3CC=C4C[C@@H](O)CC[C@]4(C)C3CC[C@@]21C (stereo not given in full)" test_value=0.983

Can you share its normalized growth? I mean this compound: "S=c1ccss1"
0.977

Next compound: "COc1cccc2c1cc([N+](=O)[O-])c1c(C(=O)O)cc3c(c12)OCO3"
1.02
